Source: ChEMBL document CHEMBL1201862

- Test system: EKVX
- Assay comment: NCI tumour cell line growth inhibition, 48 h
The source made the active and inactive calls. Rule as the data show it: active = GI50 up to about 1.1 µM and inactive = higher.
Known GI50 of a selection of compounds

Example entries begin here.
compound="N=c1[nH]cnc2c1nnn2C1C=CC(COS(N)(=O)=O)C1 (stereo unspecified)" target_or_test_system=EKVX recorded_measurement="28.9 µM (inactive)"
compound=COC(=O)/C(=C\c1cn(C(C)=O)c2ccccc12)P(=O)(OC)OC target_or_test_system=EKVX recorded_measurement="17 µM (inactive)"
compound=O=[N+]([O-])c1ccc([I+]c2ccccc2)cc1 target_or_test_system=EKVX recorded_measurement="15.7 µM (inactive)"
compound="NC(=O)c1cc(C2OC(CO)C(O)C2O)nn1-c1ccc([N+](=O)[O-])cc1 (stereo unspecified)" target_or_test_system=EKVX recorded_measurement="> 100 µM (inactive)"
compound=CCN(CC)CCC(=O)c1ccc(C)cc1 target_or_test_system=EKVX recorded_measurement="31.3 µM (inactive)"

Lookup: Fill in GI50 for record CCCCNC(=O)C1C(=O)N(CCCC)C(=O)/C1=N\N (stereo unspecified)
Found: > 100 µM (inactive)

* * *

- System: OVCAR-4
- Assay comment: NCI tumour cell line growth inhibition, 48 h
Active and inactive are the calls of the source. Rule as the data show it: active = GI50 up to about 1.1 µM and inactive = higher.
Please state which outcome applies, choosing from TRUE (active), FALSE (inactive)

molecule=Cc1cn2cc(-c3cccs3)nc2s1 group=FALSE

Lookup: Call for entry COC(=O)C1(O)CC(=O)CCC1c1ccc(OC)cc1 (centres undefined) :
Found: FALSE

Lookup: Call for entry `CC(=O)N(C(=O)CC(=O)NNCc1ccccc1Cl)c1ccc(Cl)cc1` :
Found: FALSE

Lookup: Call for entry `O=C(N[C@H](CO)[C@H](O)c1ccc([N+](=O)[O-])cc1)C(Cl)Cl` :
Found: FALSE

* * *

- Test system: RXF 393
- Assay comment: NCI tumour cell line growth inhibition, 48 h
Activity calls are given as the source filed them. Cut-off read from the data, not from the text of the source: active = GI50 up to about 1.1 µM and inactive = higher.
Known GI50 of a selection of molecules

Example entries begin here.
molecule=CCOC(=O)NC(=O)c1cn(CCN2CCN(C(=O)NCCCCCCNC(=O)N3CCN(CCn4cc(C(=O)NC(=O)OCC)c(=O)n(CCN(CC)CC)c4=O)CC3)CC2)c(=O)n(CCC(CC)CC)c1=O target_or_test_system="RXF 393" recorded_measurement="> 100 µM (inactive)"
molecule="CN(Cc1cnc2nc(N)nc(N)c2n1)c1ccc(C(=O)NC(CCC(=O)NC(P(=O)(O)O)P(=O)(O)O)C(=O)O)cc1 (stereo not drawn)" target_or_test_system="RXF 393" recorded_measurement="4.79 µM (inactive)"
molecule="CC1(C)CC[C@]2(C(=O)O)[C@H](O)C[C@]3(C)C(=CC[C@@H]4[C@@]5(C)CC[C@H](OC6OC(C(=O)O)C(O)C(O)C6O)C(C)(C)[C@@H]5CC[C@]43C)[C@@H]2C1 (stereo partly drawn)" target_or_test_system="RXF 393" recorded_measurement="26.1 µM (inactive)"
molecule=Cc1cn2cc(-c3cccs3)nc2s1 target_or_test_system="RXF 393" recorded_measurement="> 100 µM (inactive)"
molecule="Nc1nc(=O)n(C2OC(CO)C(O)C2O)cc1F (stereo not drawn)" target_or_test_system="RXF 393" recorded_measurement="43.5 µM (inactive)"
molecule=O=C1CCc2c3c(c4c([nH]c5ccccc54)c2CC1)C(=O)NC3=O target_or_test_system="RXF 393" recorded_measurement="1.91 µM (inactive)"

Lookup: Fill in GI50 for record `c1ccc(C2OCCO2)c(OCCOc2cc(OCCOc3ccccc3C3OCCO3)c(OCCOc3ccccc3C3OCCO3)cc2OCCOc2ccccc2C2OCCO2)c1`
Found: 5.35 µM (inactive)

Lookup: Fill in GI50 for record `O=C(O)c1ccc(/N=N/c2cc(S(=O)(=O)O)c3cccnc3c2O)cc1`
Found: > 100 µM (inactive)

* * *

- Test system: MDA-MB-435
- Assay comment: NCI tumour cell line growth inhibition, 48 h
Activity calls are given as the source filed them. Rule as the data show it: active = GI50 up to about 1.1 µM and inactive = higher. Where a SMILES comes first, the peptide text is derived from it. [ ]: non-standard residue; d: D form. Phe(4-NO2) = N[CH](Cc1ccc([N+](=O)[O-])cc1)C(=O)O
Please state which outcome applies, choosing from active, inactive

A selection of reference data follows.
compound="CC(NC(=O)C(Cc1ccc([N+](=O)[O-])cc1)NC(=O)C(N)CCCCN)C(=O)NC(Cc1ccc([N+](=O)[O-])cc1)C(N)=O (stereo not drawn) (H-K[Phe(4-NO2)]A[Phe(4-NO2)]-NH2; configuration not given here)" group=inactive
compound=CCN(CC)CCC(=O)c1ccc(C)cc1 group=inactive
compound=Oc1cc(-c2ccccc2)nc2ncccc12 group=active
compound=Nc1ccccc1-c1noc(=O)[nH]1 group=inactive
compound="CNC(=O)OC(C)CN1c2ccccc2Sc2ccccc21 (stereo not drawn)" group=inactive

Lookup: Call for entry `Cc1c(CN)c(C)c(CN)c(C)c1CN` :
Found: inactive

Lookup: Call for entry `CCOC(=O)CC(=O)Nc1c(C(=O)OCC)sc2nc(SC)nc(Nc3ccc(OC)c(OC)c3)c12` :
Found: inactive

Lookup: Call for entry `CCOC(=O)/C(=C/NC(=S)Nc1c(CC)cccc1C(C)(C)C)C(=O)c1ccccc1` :
Found: inactive

Lookup: Call for entry `COc1cc2c(cc1C)NC(=O)/C2=C\c1cccnc1` :
Found: inactive

Lookup: Call for entry `CCc1n[nH]c(=O)n1/N=C/c1ccc(C)cc1` :
Found: inactive

Lookup: Call for entry `N#CC(C#N)/N=N/c1ccc(-c2nc3ccccc3s2)cc1` :
Found: inactive

Lookup: Call for entry `Clc1nc2c(-c3cccs3)ncnc2n1Cc1ccccc1` :
Found: inactive

* * *

Known GI50 of a selection of compounds
- System: HCT-116
- Assay comment: NCI tumour cell line growth inhibition, 48 h
Activity calls are given as the source filed them. Rule as the data show it: active = GI50 up to about 1.1 µM and inactive = higher.

compound="COc1cccc2c(=O)c3c(n(C)c12)OC(C(C)C)C3 (configuration not stated)" target_or_test_system=HCT-116 attribute_measured=GI50 recorded_measurement="> 100 µM (inactive)"

Lookup: Fill in GI50 for record `O=C1CCc2cc3c(cc21)CC1(Cc2ccccc2C1)C3`
Found: 4.08 µM (inactive)

Lookup: Fill in GI50 for record O=C(O)CC1OCC=C2C[N+]3([O-])CCC45c6ccccc6NC4C1C2CC53 (configuration not stated)
Found: > 100 µM (inactive)

Lookup: Fill in GI50 for record `O=C1C=CC(=O)c2ncccc21`
Found: 1.89 µM (inactive)

Lookup: Fill in GI50 for record `O=C1NC(=S)N/C1=C\c1ccc(Sc2ccccc2C(=O)O)s1`
Found: > 100 µM (inactive)

Lookup: Fill in GI50 for record `Cn1nc(-c2ccccc2)c(C(=O)/C=C/c2ccccc2)c(N2CCOCC2)c1=O`
Found: 14.4 µM (inactive)

Lookup: Fill in GI50 for record `CC(=O)N(C(=O)CC(=O)NNCc1ccccc1Cl)c1ccc(Cl)cc1`
Found: > 10 µM (inactive)

Lookup: Fill in GI50 for record O=C(O)CCC(NC(=O)c1ccc(Nc2nc3ccc(C(F)(F)F)cc3nc2-c2ccccc2)cc1)C(=O)O (configuration not stated)
Found: > 100 µM (inactive)

Lookup: Fill in GI50 for record C1=C(c2ccccc2)C(N2CCOCC2)Oc2ccccc21 (configuration not stated)
Found: > 100 µM (inactive)

Lookup: Fill in GI50 for record `N#CC(C#N)/N=N/c1ccc(-c2nc3ccccc3s2)cc1`
Found: 3.78 µM (inactive)

* * *

- Tested on: T47D
- Assay comment: NCI tumour cell line growth inhibition, 48 h
Activity calls are given as the source filed them. Cut-off read from the data, not from the text of the source: active = GI50 up to about 1.1 µM and inactive = higher.
Please state which outcome applies, choosing from YES = active, NO = inactive

A selection of reference data follows.
compound="CN(C)/N=N/c1[nH]cnc1C(N)=O [DACARBAZINE]" target_or_test_system=T47D group=NO
compound=Cc1cc(S(=O)(=O)Nc2nnc3cnc4ccccc4n23)c(S)cc1Cl target_or_test_system=T47D group=NO
compound=N#CSC/C(Cl)=C/Cl.N#CSC/C(Cl)=C\Cl target_or_test_system=T47D group=NO
compound="COC(=O)n1c(=O)nc2c3c(ncn21)Oc1c(c(-c2ccccc2)nn1-c1ccccc1)C3c1ccc(Cl)cc1 (stereo not given)" target_or_test_system=T47D group=NO
compound=COC(=O)[C@H]1[C@@H](O)[C@@]2(O)c3c(OC)cc(OC)cc3O[C@@]2(c2ccc3c(c2)OCO3)[C@@H]1c1ccccc1 target_or_test_system=T47D group=YES

Now consider a different compound.
Lookup: Call for entry `COc1cc2c(cc1C)NC(=O)/C2=C\c1cccnc1` :
Found: NO

* * *

- Tested on: COLO 205
- Assay comment: NCI tumour cell line growth inhibition, 48 h
Active and inactive are the calls of the source. Cut-off read from the data, not from the text of the source: active = GI50 up to about 1.1 µM and inactive = higher.
Known GI50 of a selection of compounds

Example entries begin here.
compound=N=CCCN(CCC=N)c1ccc(/C=C2\CN(NC(=O)c3ccc(Cl)cc3)C(c3ccccc3)=N2)cc1 recorded_measurement="> 100 µM (inactive)"
compound=O=C(/C=C/c1ccccc1)/C=N/N1C(=S)N(c2ccccc2)C(=N\c2ccccc2)/C1=N/c1ccccc1 recorded_measurement="> 100 µM (inactive)"
compound="C=CCCC1(C)CCCNC1=S (stereo not given)" recorded_measurement="37.7 µM (inactive)"
compound="COC(=O)C(CNC(=O)/C=C/c1ccc(OC)c(OC)c1)NC(=O)/C=C/c1ccc(OC)c(OC)c1 (stereo not given)" recorded_measurement="> 100 µM (inactive)"

// moving on: another record for GI50
Lookup: # assay system COLO 205: give GI50 of COC(=O)[C@@]12CC(C(C)C)[C@H]3CC(C(=O)C=C1OC)[C@H]32 (stereo not given in full)
Found: > 100 µM (inactive)
